// provenance: ChEMBL document CHEMBL1153280

For each entry below, report its MIC value.
# Test system: Staphylococcus aureus
# Method summary: Antibacterial activity against methicillin-resistant Staphylococcus aureus ATCC 33591 by NCCLS method
# Assay type: functional
Express your answer in µg/mL, writing the number without its unit.

Tell me reported MIC for `N=C(c1ccc2[nH]c(-c3ccc(CCc4ccc(-c5nc6cc(C(=N)N7CCCC7)ccc6[nH]5)cc4)cc3)nc2c1)N1CCCC1` , tested with Staphylococcus aureus.
0.25

Tell me reported MIC for `CC(C)NC(=N)c1ccc2[nH]c(-c3ccc(CCc4ccc(-c5nc6cc(C(=N)NC(C)C)ccc6[nH]5)cc4)cc3)nc2c1` , tested with Staphylococcus aureus.
0.25

Tell me reported MIC for `CC(C)NC(=N)c1ccc2[nH]c(-c3ccc(CCc4cc(-c5nc6cc(C(=N)NC(C)C)ccc6[nH]5)cs4)cc3)nc2c1` , tested with Staphylococcus aureus.
0.25

Tell me reported MIC for `CC(C)NC(=N)c1ccc2[nH]c(-c3ccc(CCc4ccc(-c5nc6cc(C(=N)NC(C)C)ccc6[nH]5)nc4)cc3)nc2c1` , tested with Staphylococcus aureus.
4

----------
# Test system: Staphylococcus aureus
# Method summary: Antibacterial activity against methicillin-resistant Staphylococcus aureus ATCC 33591 by NCCLS method
# Type: functional
Assay metric: MIC (µg/mL)
Express your answer in µg/mL, writing the number without its unit.

May I ask what MIC has been recorded for `N=C(NC1CC1)c1ccc2[nH]c(-c3ccc(CCc4ccc(-c5nc6cc(C(=N)NC7CC7)ccc6[nH]5)cc4)cc3)nc2c1` ?
8

May I ask what MIC has been recorded for `CC(C)NC(=N)c1ccc(CCc2ccc(-c3nc4cc(C(=N)NC(C)C)ccc4[nH]3)cc2)cc1` ?
4

May I ask what MIC has been recorded for `CC(C)NC(=N)c1ccc2[nH]c(-c3ccc(CCc4ccc(-c5nc6cc(C(=N)NC(C)C)ccc6[nH]5)s4)cc3)nc2c1` ?
0.5

May I ask what MIC has been recorded for CCC(C)NC(=N)c1ccc2[nH]c(-c3ccc(CCc4ccc(-c5nc6cc(C(=N)NC(C)CC)ccc6[nH]5)cc4)cc3)nc2c1 (configuration not stated) ?
0.25

May I ask what MIC has been recorded for `CCCCNC(=N)c1ccc2[nH]c(-c3ccc(CCc4ccc(-c5nc6cc(C(=N)NCCCC)ccc6[nH]5)cc4)cc3)nc2c1` ?
2

May I ask what MIC has been recorded for `CC(C)NC(=N)c1ccc2[nH]c(-c3ccc(CCc4ccc(-c5nc6cc(C(=N)NC(C)C)ccc6[nH]5)cn4)cc3)nc2c1` ?
8

----------
For each entry below, report its MIC value.
# Tested on: Staphylococcus epidermidis
# Method summary: Antibacterial activity against Staphylococcus epidermidis ATCC 12228 by NCCLS method
# Format: functional
Express your answer in µg/mL, writing the number without its unit.

May I ask what MIC has been recorded for `N=C(c1ccc2[nH]c(-c3ccc(CCc4ccc(-c5nc6cc(C(=N)N7CCCC7)ccc6[nH]5)cc4)cc3)nc2c1)N1CCCC1` ?
0.25

May I ask what MIC has been recorded for `CC(C)NC(=N)c1ccc2[nH]c(-c3ccc(CCc4ccc(-c5nc6cc(C(=N)NC(C)C)ccc6[nH]5)s4)cc3)nc2c1` ?
0.12

May I ask what MIC has been recorded for `CC(C)NC(=N)c1ccc(CCc2ccc(-c3nc4cc(C(=N)NC(C)C)ccc4[nH]3)cc2)cc1` ?
0.25

May I ask what MIC has been recorded for `CC(C)NC(=N)c1ccc2[nH]c(-c3ccc(CCc4ccc(-c5nc6cc(C(=N)NC(C)C)ccc6[nH]5)nc4)cc3)nc2c1` ?
0.25

----------
# Test system: Staphylococcus aureus
# Method summary: Antibacterial activity against Staphylococcus aureus ATCC 29213 by NCCLS method
# Type: functional
For each entry below, report its MIC value.
Express your answer in µg/mL, writing the number without its unit.

May I ask what MIC has been recorded for CC1(C)S[C@@H]2[C@H](NC(=O)Cc3ccccc3)C(=O)N2[C@H]1C(=O)O [PENICILLIN G] ?
1

May I ask what MIC has been recorded for `CC(C)NC(=N)c1ccc2[nH]c(-c3ccc(CCc4cc(-c5nc6cc(C(=N)NC(C)C)ccc6[nH]5)cs4)cc3)nc2c1` ?
1

May I ask what MIC has been recorded for `CC(C)NC(=N)c1ccc2[nH]c(-c3ccc(CCc4ccc(-c5nc6cc(C(=N)NC(C)C)ccc6[nH]5)s4)cc3)nc2c1` ?
1

May I ask what MIC has been recorded for CCC(C)NC(=N)c1ccc2[nH]c(-c3ccc(CCc4ccc(-c5nc6cc(C(=N)NC(C)CC)ccc6[nH]5)cc4)cc3)nc2c1 (stereo not given) ?
1

May I ask what MIC has been recorded for `N=C(NC1CCCC1)c1ccc2[nH]c(-c3ccc(CCc4ccc(-c5nc6cc(C(=N)NC7CCCC7)ccc6[nH]5)cc4)cc3)nc2c1` ?
1

----------
# System: Staphylococcus aureus
# Method summary: Antibacterial activity against methicillin-resistant Staphylococcus aureus ATCC 33591 by NCCLS method
# Assay type: functional
Assay metric: MIC

Tell me reported MIC for `CC1(C)S[C@@H]2[C@H](NC(=O)Cc3ccccc3)C(=O)N2[C@H]1C(=O)O` , tested with Staphylococcus aureus.
> 32 µg/mL

Tell me reported MIC for `O=C(O)c1cn(C2CC2)c2cc(N3CCNCC3)c(F)cc2c1=O` , tested with Staphylococcus aureus.
≤ 0.12 µg/mL

Tell me reported MIC for `c1cc(-c2nc3cc(C4=NCCN4)ccc3[nH]2)ccc1CCc1ccc(-c2nc3cc(C4=NCCN4)ccc3[nH]2)cc1` , tested with Staphylococcus aureus.
> 64 µg/mL

----------
# Test system: Staphylococcus epidermidis
# Method summary: Antibacterial activity against Staphylococcus epidermidis ATCC 12228 by NCCLS method
# Assay type: functional
Assay metric: MIC

May I ask what MIC has been recorded for `c1cc(-c2nc3cc(C4=NCCN4)ccc3[nH]2)ccc1CCc1ccc(-c2nc3cc(C4=NCCN4)ccc3[nH]2)cc1` ?
> 64 µg/mL

May I ask what MIC has been recorded for `CC(C)NC(=N)c1ccc2[nH]c(-c3ccc(CCc4ccc(-c5nc6cc(C(=N)NC(C)C)ccc6[nH]5)cc4)cc3)nc2c1` ?
< 0.06 µg/mL

May I ask what MIC has been recorded for `N=C(NC1CCCC1)c1ccc2[nH]c(-c3ccc(CCc4ccc(-c5nc6cc(C(=N)NC7CCCC7)ccc6[nH]5)cc4)cc3)nc2c1` ?
< 0.06 µg/mL

May I ask what MIC has been recorded for CCC(C)NC(=N)c1ccc2[nH]c(-c3ccc(CCc4ccc(-c5nc6cc(C(=N)NC(C)CC)ccc6[nH]5)cc4)cc3)nc2c1 (stereo not given) ?
< 0.06 µg/mL

May I ask what MIC has been recorded for `O=C(O)c1cn(C2CC2)c2cc(N3CCNCC3)c(F)cc2c1=O` ?
≤ 0.12 µg/mL
